- Test system: Crude diglycosidase
- protocol-summary: Examination of substrate concentration in the conversion into isoflavone aglycons by diglycosidase using soybean materials
- Format: biochemical, Penicillium multicolor IAM7153
- measurement-setup: substrate concentration 5%, heat treatment of enzyme yes, reaction time 6 h
- Experimental: Into 20 mM acetate buffer of pH 4.0 was suspended 0.1 g, 0.25 g, 0.5 g, 1.0 g, or 1.5 g of each of various soybean materials (roasted soy flour (manufactured by Fuji Shokuryo K.K.), soymilk (manufactured by Gitoh Shokuhin K.K.), defatted soybean (manufactured by Fuji Seiyu K.K.), concentrated soybean protein (manufactured by Fuji Seiyu K.K.)). The pH of the suspension was measured and the liquid volume was adjusted to 4.5 mL while the pH was adjusted to 4.0 with 1N hydrochloric acid. […]
measurement-type: Decomposition efficiency of genistin family in defatted soybean

INSERT INTO results (substance_smiles, recorded_result) VALUES
  ('O=C(O)CC(=O)OC[C@H]1O[C@@H](Oc2cc(O)c3c(=O)c(-c4ccc(O)cc4)coc3c2)[C@H](O)[C@@H](O)[C@@H]1O', 41.1);

P: O=c1c(-c2ccc(O)cc2)coc2cc(O)cc(O)c12
Q: O=c1c(-c2ccc(O)cc2)coc2cc(O[C@@H]3O[C@H](CO)[C@@H](O)[C@H](O)[C@H]3O)cc(O)c12
R: CC(=O)OC[C@H]1O[C@@H](Oc2cc(O)c3c(=O)c(-c4ccc(O)cc4)coc3c2)[C@H](O)[C@@H](O)[C@@H]1O
Query: Order each entry by recorded Decomposition efficiency of genistin family in defatted soybean, climbing from the minimum. API: response body holds the labels in the requested order.
Response: R, P, Q
(R: 1.8, P: 15.4, Q: 41.8)

###

- Test system: β-Glucosidase derived from A. niger
- protocol-summary: Reactivity toward various isoflavone glycosides (HPLC)
- Format: biochemical, Aspergillus niger
- Set-up: unit not given here
- measurement-setup: Reaction time 1 h; 55 °C, pH 4.0
measurement-type: aglycon

INSERT INTO results (substance_smiles, measurement_type, recorded_result) VALUES
  ('O=c1c(-c2ccc(O)cc2)coc2cc(O[C@@H]3O[C@H](CO)[C@@H](O)[C@H](O)[C@H]3O)ccc12', 'aglycon', 100);

A: COc1cc2c(=O)c(-c3ccc(O)cc3)coc2cc1O[C@@H]1O[C@H](COC(=O)CC(=O)O)[C@@H](O)[C@H](O)[C@H]1O
B: COc1cc2c(=O)c(-c3ccc(O)cc3)coc2cc1O[C@@H]1O[C@H](CO)[C@@H](O)[C@H](O)[C@H]1O
Query: // pick min by aglycon: A , B // return label of chosen record
Response: A

###

- Tested on: Crude diglycosidase
- protocol-summary: Examination of temperature in the conversion into isoflavone aglycons by diglycosidase using soybean materials
- Type: biochemical, Penicillium multicolor IAM7153
- Design: concentration or dose not given beside the values
- measurement-setup: 30 °C; heat treatment of enzyme: no; 0 h
measurement-type: Decomposition efficiency of glycitin family in roasted soy flour (%)

INSERT INTO measurements (substance_smiles, unit_string, recorded_result) VALUES
  ('COc1cc2c(=O)c(-c3ccc(O)cc3)coc2cc1O[C@@H]1O[C@H](COC(C)=O)[C@@H](O)[C@H](O)[C@H]1O', '%', 38.7);

a: COc1cc2c(=O)c(-c3ccc(O)cc3)coc2cc1O[C@@H]1O[C@H](CO)[C@@H](O)[C@H](O)[C@H]1O
b: COc1cc2c(=O)c(-c3ccc(O)cc3)coc2cc1O
Query: From the items above, decide which of a and b has the lower Decomposition efficiency of glycitin family in roasted soy flour reading. Kindly state the label of the option you pick.
Response: b
(b: 10.4%, a: 50.9%)

###

- System: Crude diglycosidase
- protocol-summary: Examination of pH in the conversion into isoflavone aglycons by diglycosidase using soybean materials
- Assay type: biochemical, Penicillium multicolor IAM7153
- measurement-setup: pH5, heat treatment of enzyme no, reaction time 3 h, 55° C.
measurement-type: Decomposition efficiency of daidzin family in roasted soy flour
Lab note: jot down the number only; don't add units.

Query: Which measured Decomposition efficiency of daidzin family in roasted soy flour belongs to `CC(=O)OC[C@H]1O[C@@H](Oc2ccc3c(=O)c(-c4ccc(O)cc4)coc3c2)[C@H](O)[C@@H](O)[C@@H]1O` , tested on Crude diglycosidase?
Response: 24.7

Query: What do we get for `O=c1c(-c2ccc(O)cc2)coc2cc(O)ccc12` ?
Response: 75.3

###

- System: Crude diglycosidase
- protocol-summary: Examination of pH in the conversion into isoflavone aglycons by diglycosidase using soybean materials
- Assay type: biochemical, Penicillium multicolor IAM7153
- measurement-setup: pH4, heat treatment of enzyme no, reaction time 3 h, 55° C.
- Protocol: A substrate solution of 450 μL was prepared by suspending 50 mg of each soybean material (roasted soy flour (manufactured by Fuji Shokuryo K.K.), soymilk (manufactured by Gitoh Shokuhin K.K.), defatted soybean (manufactured by Fuji Seiyu K.K.), concentrated soybean protein (manufactured by Fuji Seiyu K.K.)), and adjusting the pH to 2 to 11 with hydrochloric acid or sodium hydroxide. […]
measurement-type: Decomposition efficiency of glycitin family in roasted soy flour

1: COc1cc2c(=O)c(-c3ccc(O)cc3)coc2cc1O [glycitein]
2: COc1cc2c(=O)c(-c3ccc(O)cc3)coc2cc1O[C@@H]1O[C@H](COC(C)=O)[C@@H](O)[C@H](O)[C@H]1O [acetylglycitin, 6″-O-acetylglycitin]
Query: Between 1 and 2 , whose recorded Decomposition efficiency of glycitin family in roasted soy flour is greater? Refer to your chosen item by its label in the answer.
Response: 1

###

- Tested on: Crude diglycosidase
- protocol-summary: Examination of temperature in the conversion into isoflavone aglycons by diglycosidase using soybean materials
- Type: biochemical, Penicillium multicolor IAM7153
- Design: concentration or dose not given beside the values
- measurement-setup: 65 °C; heat treatment of enzyme: no; 6 h
measurement-type: Decomposition efficiency of daidzin family in roasted soy flour (%)
Answer format: numeric, % implied, no suffix.

Query: So what does the record say about Decomposition efficiency of daidzin family in roasted soy flour for `O=c1c(-c2ccc(O)cc2)coc2cc(O)ccc12` ?
Response: 62.2

Query: Similarly, `CC(=O)OC[C@H]1O[C@@H](Oc2ccc3c(=O)c(-c4ccc(O)cc4)coc3c2)[C@H](O)[C@@H](O)[C@@H]1O` ?
Response: 37.8

###

- System: Crude diglycosidase
- protocol-summary: Examination of temperature in the conversion into isoflavone aglycons by diglycosidase using soybean materials
- Format: biochemical, Penicillium multicolor IAM7153
- Design: concentration or dose not given beside the values
- measurement-setup: 65 °C; heat treatment of enzyme: no; 0 h
# Decomposition efficiency of daidzin family in roasted soy flour listing for each entry below
Supply the numeric figure in %, leaving out any unit text.

Observe how each entry below is paired with its result.
INSERT INTO results (molecule, measured_target, recorded_result) VALUES
  ('O=c1c(-c2ccc(O)cc2)coc2cc(O[C@@H]3O[C@H](CO)[C@@H](O)[C@H](O)[C@H]3O)ccc12 [daidzin]', 'Crude diglycosidase', 48.6),
  ('O=c1c(-c2ccc(O)cc2)coc2cc(O)ccc12 [daidzein]', 'Crude diglycosidase', 3.6);

Query: Reported Decomposition efficiency of daidzin family in roasted soy flour, molecule CC(=O)OC[C@H]1O[C@@H](Oc2ccc3c(=O)c(-c4ccc(O)cc4)coc3c2)[C@H](O)[C@@H](O)[C@@H]1O [acetyldaidzin, 6″-O-acetyldaidzin] : ____
Response: 47.8

###

- System: Crude diglycosidase
- protocol-summary: Examination of temperature in the conversion into isoflavone aglycons by diglycosidase using soybean materials
- Type: biochemical, Penicillium multicolor IAM7153
- measurement-setup: 55° C., heat treatment of enzyme no, reaction time 6 h
Entries and their Decomposition efficiency of daidzin family in concentrated soybean protein values follow.
# number only, unit % dropped from output

INSERT INTO measurements (substance_smiles, recorded_result) VALUES
  ('O=c1c(-c2ccc(O)cc2)coc2cc(O)ccc12', 62.3);

Now consider a different compound.
Query: Given `CC(=O)OC[C@H]1O[C@@H](Oc2ccc3c(=O)c(-c4ccc(O)cc4)coc3c2)[C@H](O)[C@@H](O)[C@@H]1O` , state its recorded Decomposition efficiency of daidzin family in concentrated soybean protein.
Response: 37.7

###

- Test system: Crude diglycosidase
- protocol-summary: Examination of pH in the conversion into isoflavone aglycons by diglycosidase using soybean materials
- Assay type: biochemical, Penicillium multicolor IAM7153
- Parameters: concentration or dose not given beside the values
- measurement-setup: pH6.6; heat treatment of enzyme: no; reaction time 1 h
measurement-type: Decomposition efficiency of genistin family in defatted soybean (%)

INSERT INTO assay_data (substance_smiles, unit_string, recorded_result) VALUES
  ('O=c1c(-c2ccc(O)cc2)coc2cc(O)cc(O)c12', '%', 49.3);

I: CC(=O)OC[C@H]1O[C@@H](Oc2cc(O)c3c(=O)c(-c4ccc(O)cc4)coc3c2)[C@H](O)[C@@H](O)[C@@H]1O
II: O=C(O)CC(=O)OC[C@H]1O[C@@H](Oc2cc(O)c3c(=O)c(-c4ccc(O)cc4)coc3c2)[C@H](O)[C@@H](O)[C@@H]1O
Query: // compare: I vs II , metric Decomposition efficiency of genistin family in defatted soybean, want the smaller Kindly give the label for the entry you pick.
Response: I
(I: 0.6%, II: 50.1%)
